Reported IC50 values follow for various compounds
test system: 233499-124-R-J3-PDC complex spheroid viability; test: Anticancer human tumor 233499-124-R-J3-PDC patient-derived colon adenocarcinoma cell line growth inhibition [CLK]; conditions: curve of first compound; second compound 10 µM;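 further: spheroids exposed to the drug combinations for seven days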

Answered cases to consult:
| compound | value.measured |
| --- | --- |
| CCN1CCN(Cc2ccc(Nc3ncc(F)c(-c4cc(F)c5nc(C)n(C(C)C)c5c4)n3)nc2)CC1 + CN1CCN(c2cc(C(=O)Nc3cc4cc(-c5cnn(C)c5)ccc4cn3)ccn2)CC1 | < 3.16 nM |
| CC(=O)O[C@H]1C(=O)[C@@]2(C)[C@H]([C@H](OC(=O)c3ccccc3)[C@]3(O)C[C@H](OC(=O)[C@H](O)[C@@H](NC(=O)c4ccccc4)c4ccccc4)C(C)=C1C3(C)C)[C@]1(OC(C)=O)CO[C@@H]1C[C@@H]2O + CN1CCN(c2cc(C(=O)Nc3cc4cc(-c5cnn(C)c5)ccc4cn3)ccn2)CC1 | < 31.6 nM |
| CCc1c2c(nc3ccc(O)cc13)-c1cc3c(c(=O)n1C2)COC(=O)[C@]3(O)CC + CN1CCN(c2cc(C(=O)Nc3cc4cc(-c5cnn(C)c5)ccc4cn3)ccn2)CC1 | < 3.16 nM |
| CCCS(=O)(=O)Nc1ccc(F)c(C(=O)c2c[nH]c3ncc(-c4ccc(Cl)cc4)cc23)c1F + CNC(=O)c1ccc(Nc2nc(OC3CCCC3)c3c(-c4ccc5nc(C)oc5c4)c[nH]c3n2)c(OC)c1 | 4150 nM |

**Query** Name the recorded IC50 of the item NC(=O)C(=Cn1cnc(-c2cc(C(F)(F)F)cc(C(F)(F)F)c2)n1)c1cncnc1 + CNC(=O)c1ccc(Nc2nc(OC3CCCC3)c3c(-c4ccc5nc(C)oc5c4)c[nH]c3n2)c(OC)c1 in your answer.
**Result** 161 nM

**Query** Name the recorded IC50 of the item C=CC(=O)N1CCN(c2nc(=O)n(-c3c(C)ccnc3C(C)C)c3nc(-c4c(O)cccc4F)c(F)cc23)C(C)C1 (centres undefined) + CNC(=O)c1ccc(Nc2nc(OC3CCCC3)c3c(-c4ccc5nc(C)oc5c4)c[nH]c3n2)c(OC)c1 in your answer.
**Result** > 10000 nM

**Query** Name the recorded IC50 of the item COc1cccc2c1C(=O)c1c(O)c3c(c(O)c1C2=O)CC(O)(C(=O)CO)CC3OC1CC(N)C(O)C(C)O1 (centres undefined) + CN1CCN(c2cc(C(=O)Nc3cc4cc(-c5cnn(C)c5)ccc4cn3)ccn2)CC1 in your answer.
**Result** < 31.6 nM

**Query** Name the recorded IC50 of the item C#Cc1c(F)ccc2cc(O)cc(-c3ncc4c(N5CC6CCC(C5)N6)nc(OCC56CCCN5CC(F)C6)nc4c3F)c12 (centres undefined) + CN1CCN(c2cc(C(=O)Nc3cc4cc(-c5cnn(C)c5)ccc4cn3)ccn2)CC1 in your answer.
**Result** < 31.6 nM

**Query** Name the recorded IC50 of the item COC1C=CCC(C)C(C)S(=O)(=O)NC(=O)c2ccc3c(c2)N(CC2CCC21)CC1(CCCc2cc(Cl)ccc21)CO3 (centres undefined) + CNC(=O)c1ccc(Nc2nc(OC3CCCC3)c3c(-c4ccc5nc(C)oc5c4)c[nH]c3n2)c(OC)c1 in your answer.
**Result** 129 nM
